Recorded measurements of T/C, one per entry
tested on: L1210 leukemia ip in BDF1 mice, survival T/C; experiment: NCI In Vivo Anticancer Drug Screen. Data for tumor model L1210 Leukemia (intraperitoneal) in B6D2F1 (BDF1) mice; settings: endpoint: mean survival time; dose: 300.0 mg/kg/injection; schedule: Q01DX009 (ip); vehicle: saline; higher = longer survival
Inconclusive results and toxic doses are left out.

| compound | experimental-system | value-kind | endpoint-result |
| --- | --- | --- | --- |
| c1ccc(CCCC2CCCC2)cc1 | L1210 leukemia ip in BDF1 mice, survival T/C | T/C | 106 % of control |
| N#CSCc1cc(Cl)c(CSC#N)c(Cl)c1Cl | L1210 leukemia ip in BDF1 mice, survival T/C | T/C | 91 % of control |
| COC1OCN(C)CC1(C)C (centres undefined) | L1210 leukemia ip in BDF1 mice, survival T/C | T/C | 99 % of control |

Now consider the entry below.
Query string: Give the reported value of T/C for this record: O=C1C[C@@H](c2ccc(O)cc2)[C@@]2(O1)C(=O)O[C@H]([C@@H](O)CO)[C@@H]2O
Result string: 100 % of control

---

system: L1210 leukemia ip in BDF1 mice, survival T/C; assay: NCI In Vivo Anticancer Drug Screen. Data for tumor model L1210 Leukemia (intraperitoneal) in B6D2F1 (BDF1) mice; conditions: endpoint: mean survival time; dose: 100.0 mg/kg/injection; schedule: Q04DX003 (ip); vehicle: carboxymethylcellulose (CMC); higher = longer survival
Inconclusive results and toxic doses are left out.
value-kind: T/C

| molecule | T/C |
| --- | --- |
| O=C(O)CNCCN1CC(=O)N(Cc2ccccc2)C1=S | 100 % of control |
| CN(C)c1ccc(C=Nc2ccc(N(C)C)cc2)cc1 | 102 % of control |
| Cc1ccc(C(=O)NO)cc1 | 98 % of control |
| Cc1ccc2[nH]c(=S)n(-c3ccc(Cl)cc3)c(=O)c2c1 | 97 % of control |
| COC(=O)CCC(C)C1CCC2C3C(OC(C)=O)CC4CC(O)CCC4(C)C3CC(O)C12C (stereo unspecified) | 104 % of control |

Then this molecule:
Query string: Recall and state the measured T/C for C=CC(=O)NCNC(=O)C=C .
Result string: 110 % of control

---

system: L1210 leukemia ip in BDF1 mice, survival T/C; assay: NCI In Vivo Anticancer Drug Screen. Data for tumor model L1210 Leukemia (intraperitoneal) in B6D2F1 (BDF1) mice; conditions: endpoint: mean survival time; dose: 200.0 mg/kg/injection; schedule: Q01DX001 (ip); vehicle: Klucel (hydroxypropylcellulose) (HPC); higher = longer survival
Toxic doses and inconclusive results are not listed.
value-kind: T/C

| compound | value-kind | endpoint-result |
| --- | --- | --- |
| CCOc1ccc2cc(Br)ccc2c1 | T/C | 97 % of control |

Query string: Kindly indicate its recorded T/C. Item: COC(=O)NS(=O)(=O)c1ccn(C)c1
Result string: 98 % of control

Query string: Provide only the value of recorded T/C for c1ccc(-c2nnc3ccccn23)cc1
Result string: 106 % of control

Query string: Give the value of T/C reported for the following: COC(=O)C(c1ccccc1)c1ccccc1
Result string: 97 % of control

Query string: Give me measured T/C, please, for this compound: Cc1ccc(COC(=O)c2cccnc2)cc1
Result string: 100 % of control

Query string: Give a short answer stating reported T/C for Clc1ccc2c(c1)C([P+](c1ccccc1)(c1ccccc1)c1ccccc1)c1cc(Cl)cc(Cl)c1-2 (centres undefined) .
Result string: 93 % of control

Query string: Let me know recorded T/C for CCCCCC1CCC(OC(=O)NC)CC1 (centres undefined) , thanks.
Result string: 100 % of control

Query string: Report T/C, nothing else, for this compound: Cc1nc(N)nc2c1CCC(O)S2 (centres undefined)
Result string: 86 % of control

Query string: Return T/C (reported value) for this compound: c1ccc(N2N=NC3C4CC(C5COCC54)C32)cc1 (centres undefined)
Result string: 104 % of control

Query string: Annotate the compound CCCCCCCCCCCCOc1ccccc1OC with its measured T/C.
Result string: 90 % of control

Query string: Look up and state reported T/C for CCCCOC(=O)c1ccc(OC(=O)Nc2cccc(Cl)c2)cc1
Result string: 92 % of control

Query string: For the compound CCCNS(=O)(=O)c1ccc(C(N)=S)cc1 , give its measured T/C value.
Result string: 108 % of control

Query string: // fetch T/C given entry CCC[n+]1nc2ccccc2c(=Nc2ccccc2[N+](=O)[O-])[n-]1
Result string: 100 % of control

Query string: Specify T/C for Cc1cccc(C)c1/[N+]([O-])=C/c1ccc(Cl)cc1 and stop.
Result string: 98 % of control

// data source = PubChem BioAssay AID248
